- System: RERF-LC-KJ
- EXPERIMENTAL PROTOCOL: relative viability (nuclei count vs DMSO), 5 days (fraction); higher = more cells survive
- REPORTED CONDITIONS: first compound 0.1581 µM
The following molecules are shown together with reported relative viability values.
MEASURED METRIC: relative viability

[[record]]
molecule = "Nc1ccn([C@@H]2O[C@H](CO)[C@@H](O)[C@@H]2O)c(=O)n1 [Cytarabine] + N=C(N)NC(=N)NCCc1ccccc1 [Phenformin] (partner 250 µM)"
numeric_result = 0.298

[[record]]
molecule = "Nc1ccn([C@@H]2O[C@H](CO)[C@@H](O)[C@@H]2O)c(=O)n1 [Cytarabine] + CC(=O)Nc1cccc(-n2c(=O)n(C3CC3)c(=O)c3c(Nc4ccc(I)cc4F)n(C)c(=O)c(C)c32)c1 [Trametinib] (partner 0.02 µM)"
numeric_result = 0.498

[[record]]
molecule = "Nc1ccn([C@@H]2O[C@H](CO)[C@@H](O)[C@@H]2O)c(=O)n1 [Cytarabine] + COc1cc2c(Oc3ccc(NC(=O)C4(C(=O)Nc5ccc(F)cc5)CC4)cc3F)ccnc2cc1OCCCN1CCOCC1 [Foretinib] (partner 0.25 µM)"
numeric_result = 0.545

[[record]]
molecule = "COc1cc2nccc(Oc3ccc(NC(=O)Nc4cc(C)on4)c(Cl)c3)c2cc1OC [Tivozanib] + CC(=O)Nc1cccc(-n2c(=O)n(C3CC3)c(=O)c3c(Nc4ccc(I)cc4F)n(C)c(=O)c(C)c32)c1 [Trametinib] (partner 0.02 µM)"
numeric_result = 0.859

